# Study system: β-PDGFR (Homo sapiens, UniProt P09619)
# Sequence (P09619 33-1106): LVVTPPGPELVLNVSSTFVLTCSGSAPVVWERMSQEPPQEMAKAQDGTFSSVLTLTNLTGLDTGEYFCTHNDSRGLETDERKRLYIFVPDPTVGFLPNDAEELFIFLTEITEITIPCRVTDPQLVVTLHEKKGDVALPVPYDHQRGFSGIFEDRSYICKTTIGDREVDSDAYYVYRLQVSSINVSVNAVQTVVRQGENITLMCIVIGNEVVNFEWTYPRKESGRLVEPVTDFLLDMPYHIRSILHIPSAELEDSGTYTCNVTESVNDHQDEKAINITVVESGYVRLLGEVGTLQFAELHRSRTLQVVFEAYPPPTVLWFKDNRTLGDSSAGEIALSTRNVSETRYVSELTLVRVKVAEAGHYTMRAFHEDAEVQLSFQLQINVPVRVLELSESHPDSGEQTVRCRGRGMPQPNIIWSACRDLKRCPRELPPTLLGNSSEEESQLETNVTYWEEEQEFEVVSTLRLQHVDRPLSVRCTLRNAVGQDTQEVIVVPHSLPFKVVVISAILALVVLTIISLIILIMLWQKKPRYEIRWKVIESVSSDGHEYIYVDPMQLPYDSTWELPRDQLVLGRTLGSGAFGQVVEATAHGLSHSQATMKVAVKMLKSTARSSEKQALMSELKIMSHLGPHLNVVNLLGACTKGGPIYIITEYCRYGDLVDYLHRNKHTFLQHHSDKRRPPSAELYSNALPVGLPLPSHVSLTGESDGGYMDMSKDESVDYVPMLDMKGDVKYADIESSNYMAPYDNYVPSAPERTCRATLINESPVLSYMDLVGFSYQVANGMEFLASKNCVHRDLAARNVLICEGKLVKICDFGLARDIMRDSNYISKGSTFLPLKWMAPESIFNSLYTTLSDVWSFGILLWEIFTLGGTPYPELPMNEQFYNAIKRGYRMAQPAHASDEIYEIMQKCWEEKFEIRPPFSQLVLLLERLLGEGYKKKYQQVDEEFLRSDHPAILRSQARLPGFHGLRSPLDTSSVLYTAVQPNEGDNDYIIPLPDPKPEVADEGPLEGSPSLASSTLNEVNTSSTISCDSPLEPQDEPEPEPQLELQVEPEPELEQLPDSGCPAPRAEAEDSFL
# Experiment summary: HR5 phosphorylation assay (CHO cells overexpressing human β-PDGFR, PDGF BB stimulation)
# Type: cell-based
# Set-up: host or cells: CHO cells (HR5 line)
# Cond: 8 nM PDGF BB, PDGF receptor phosphorylation
Measured quantity: IC50 (nM)

{"Mol smiles": "COc1cc2c(N3CCN(C(=O)Nc4ccc(OC(C)C)cc4)CC3)c(C#N)cnc2cc1OCCCN1CCCCC1", "Number": 60}

###

# Study system: β-PDGFR (Homo sapiens)
# Experiment summary: MG63 phosphorylation assay (endogenous β-PDGFR phosphorylation, PDGF-BB stimulation with human plasma)
# Assay type: cell-based
# Set-up: This assay is for measuring endogenous β-PDGFR phosphorylation in MG63 cells; endogenous in cells; host or cells: MG63 human osteosarcoma cells (ATCC)
# Cond: MG63 human osteosarcoma cells; PDGF-BB stimulation in presence of 45% human plasma; PDGF receptor phosphorylation; read-out: MG63 w/human plasma IC50
Measured quantity: IC50 (nM)

{"Mol smiles": "COc1cc2c(N3CCN(C(=O)Nc4ccc(OC(C)C)cc4)CC3)c(C#N)cnc2cc1OCCCN1CCCCC1", "Reading unit": "nM", "Number": 134}
